Data origin: paper PMC11566853

Target or system adenine deaminase (Ade) (Clostridioides difficile, UniProt A0A9R0BKJ2); recorded quantity Kd.
One number for each entry, in µM.

SMILES_REPR: Clc1ncnc2[nH]cnc12
UNITS: µM
Kd: 264

For this compound ( CC1(C)[C@@H](O)CC[C@]2(C)[C@H]3C(=O)C=C4[C@@H]5C[C@@](C)(C(=O)O)CC[C@]5(C)CC[C@@]4(C)[C@]3(C)CC[C@@H]12 ), measured Kd is 34.6
